Taken from PubChem BioAssay (NCATS).

# Test system: C33A
# experiment: Primary qHTS to identify gynecologic anti-cancer compounds using libraries of approved drugs and bioactive compounds (AID 1345084); note: nearly all actives have a fitted effect of over 55% in size
# condition.label: Gynecologic cancer cell panel viability, ATPlite luminescence, 48 h; series mostly up to 57.5 µM
Results filed as inconclusive are left out. Activity calls are given as the source filed them. Calls come from the whole dose curve; as a rule, active = well fitted cell-killing curve with a large enough effect; inconclusive = small, poorly fitted or top-dose-only effect, or effect the other way; inactive = flat fitted curve, though single readings scatter.
Choose the fitting class; nothing outside active, inactive is accepted.

Consider the following illustrative entries.
molecule: CO[C@H]1C[C@H](O[C@H]2CC[C@]3(C=O)[C@H]4CC[C@]5(C)[C@@H](C6=CC(=O)OC6)CC[C@]5(O)[C@@H]4CC[C@]3(O)C2)O[C@H](C)[C@H]1O
assay.target: C33A
qualitative.label: active

molecule: CC(=O)O[C@H]1C(=O)[C@]2(C)C(O)C[C@H]3OC[C@@]3(OC(C)=O)[C@H]2[C@H](OC(=O)c2ccccc2)[C@]2(O)C[C@H](O)C(C)=C1C2(C)C (stereo partly drawn)
assay.target: C33A
qualitative.label: inactive

molecule: COC1CC(O[C@H]2CC[C@]3(C)C4CC[C@]5(C)[C@@H](C6=CC(=O)OC6)[C@@H](OC(C)=O)C[C@]5(O)C4CC[C@@H]3C2)OC(C)C1O[C@@H]1O[C@H](CO)[C@@H](O)[C@H](O)[C@H]1O (stereo partly drawn)
assay.target: C33A
qualitative.label: active

molecule: CCC1CN2CCC3(C(=O)Nc4cccc(O)c43)C2CC1/C(=C/OC)C(=O)OC (stereo not drawn)
assay.target: C33A
qualitative.label: inactive

molecule: COc1cc(O)c2c(c1)/C=C/C[C@@H](O)[C@@H](O)C(=O)CCC[C@H](C)OC2=O
assay.target: C33A
qualitative.label: inactive

molecule: CN(C)[C@@H]1C(=O)C(C(N)=O)=C(O)[C@@]2(O)C(=O)C3=C(O)c4c(O)ccc(Cl)c4[C@@](C)(O)C3C[C@@H]12 (stereo partly drawn)
assay.target: C33A
qualitative.label: inactive

molecule: CN1C(=O)C(Cc2ccc3ccccc3c2)N=C(c2ccc(O)cc2)c2cc(Cl)ccc21 (stereo not drawn)
assay.target: C33A
qualitative.label: inactive

molecule: C/C=C(\C)C(=O)O[C@@H]1[C@@H](C)[C@]2(O)C3C=C(C)C(=O)[C@@]3(O)CC(CO)=C[C@H]2C2C(C)(C)[C@@]21OC(=O)C(C)CC (stereo partly drawn)
assay.target: C33A
qualitative.label: inactive

molecule: CN1CCN(c2nc3ccccc3nc2Cl)CC1
assay.target: C33A
qualitative.label: inactive

molecule: C[C@H]1CCC/C=C/C2C[C@H](O)C[C@H]2[C@H](O)/C=C/C(=O)O1 (stereo partly drawn)
assay.target: C33A
qualitative.label: active

Problem: Per the records of this test, what outcome belongs to CN(C(=O)C(c1ccccc1)c1ccccc1)[C@H](CN1CC[C@H](O)C1)c1ccccc1 ?
Solution: inactive

Problem: Per the records of this test, what outcome belongs to CC(=O)O[C@@H]1[C@@H](O)[C@H]2O[C@@H]3C=C(C)[C@@H](O)C[C@]3(CO)[C@]1(C)[C@]21CO1 ?
Solution: active

Problem: Per the records of this test, what outcome belongs to c1ccc(C2(c3ccccc3)OC[C@@H]([C@H]3CCCCN3)O2)cc1 ?
Solution: inactive

Problem: Per the records of this test, what outcome belongs to C=CC(C)(C)c1[nH]c2c(CC=C(C)C)cc(CC=C(C)C)cc2c1C[C@@H]1NC(=O)[C@H](C)NC1=O ?
Solution: inactive

Problem: Per the records of this test, what outcome belongs to C#CC1(O)CCC2C3CCC4=CC(=O)CCC4=C3C=CC21C (stereo not drawn) ?
Solution: inactive

Problem: Per the records of this test, what outcome belongs to CC[C@H]1C[C@@H]2CC[C@@H](O2)[C@@H](C)C(=O)O[C@H](CC)C[C@H]2CC[C@H](O2)[C@H](C)C(=O)O[C@@H](C)C[C@@H]2CC[C@@H](O2)[C@@H](C)C(=O)O[C@H](CC)C[C@H]2CC[C@H](O2)[C@H](C)C(=O)O1 ?
Solution: active
